# recorded_conditions: in n-propyl acetate, 293.15 K
outcome_measure: solubility (mole fraction)

>>> df
                                 cpd_smiles             outcome_measure  experimental_result
0  Cc1nc2n(c(=O)c1CCN1CCC(c3noc4cc(F)ccc34)CC1)CCCC2  solubility (mole fraction)              0.00202

* * *

# recorded_conditions: in acetone, 308.15 K
outcome_measure: solubility (mole fraction)

                                 cpd_smiles  experimental_result
0  Cc1nc2n(c(=O)c1CCN1CCC(c3noc4cc(F)ccc34)CC1)CCCC2              0.00309

Values compiled from BigSolDB 2.1.
